- Test system: Escherichia coli
- TEST PROTOCOL: Antibacterial activity against Escherichia coli ATCC25922 assessed as reduction in bacterial growth measured after 18 to 24 hrs by CLSI protocol based method
- Format: functional
- SETUP CONDITIONS: time 18-24 hrs
PROPERTY NAME: log10(MIC) (log10 of the value in µg/mL)
Recall that a logarithmic scale is used here: each number is log10 of MIC in µg/mL.

Some solved cases for reference:
1) C[C@@H](O)[C@H](NC(=O)c1ccc(C#Cc2ccc(/C=N/N3CCNCC3)cc2)cc1)C(=O)NO = 0.60
2) C[C@@H](O)[C@H](NC(=O)c1ccc(C#Cc2ccc(/C=N/N3CCN(C(=O)C(C)(C)C)CC3)nc2)cc1)C(=O)NO = 0.60
3) C[C@@H](O)[C@H](NC(=O)c1ccc(C#Cc2ccc(/C=N/N3CCCCC3)cc2)cc1)C(=O)NO = -0.60
4) C#CCN1CCN(/N=C/c2ccc(C#Cc3ccc(C(=O)N[C@H](C(=O)NO)[C@@H](C)O)cc3)cc2)CC1 = -1.52
5) CCOC(=O)N1CCN(/N=C/c2ccc(C#Cc3ccc(C(=O)N[C@H](C(=O)NO)[C@@H](C)O)cc3)cc2)CC1 = -1.22
6) C[C@@H](O)[C@H](NC(=O)c1ccc(C#Cc2ccc(CN3CCOCC3)cc2)cc1)C(=O)NO = -0.30
7) C[C@@H](O)[C@H](NC(=O)c1ccc(C#Cc2ccc(/C=N/N3CCN(C(=O)N(C)C)CC3)cc2)cc1)C(=O)NO = -0.30
8) C[C@@H](O)[C@H](NC(=O)c1ccc(C#Cc2ccc(/C=N/N3CCN(C)CC3)nc2)cc1)C(=O)NO = 0.90
9) C[C@@H](O)[C@H](NC(=O)c1ccc(C#Cc2ccc(/C=N/N3CCN(C4CCCC4)CC3)cc2)cc1)C(=O)NO = 0.30
10) CC(=O)N1CCN(/N=C/c2ccc(C#Cc3ccc(C(=O)N[C@H](C(=O)NO)[C@@H](C)O)cc3)cc2)CC1 = -0.30

Report measured log10(MIC); entry is `C[C@@H](O)[C@H](NC(=O)c1ccc(C#Cc2ccc(/C=N/N3CCN(C(=O)C4CC4)CC3)cc2)cc1)C(=O)NO` -1.52

Report measured log10(MIC); entry is `CCC(=O)N1CCN(/N=C/c2ccc(C#Cc3ccc(C(=O)N[C@H](C(=O)NO)[C@@H](C)O)cc3)cc2)CC1` -1.52

Report measured log10(MIC); entry is `C[C@@H](O)[C@H](NC(=O)c1ccc(C#Cc2ccc(/C=N/N3CCCC3)nc2)cc1)C(=O)NO` 0.30

Report measured log10(MIC); entry is `C[C@@H](O)[C@H](NC(=O)c1ccc(C#Cc2ccc(/C=N/N3CCSCC3)cc2)cc1)C(=O)NO` -0.60

Report measured log10(MIC); entry is `C[C@@H](O)[C@H](NC(=O)c1ccc(C#Cc2ccc(/C=N/N3CCN(C)CC3)cc2)cc1)C(=O)NO` 0.00

Report measured log10(MIC); entry is `C[C@@H](O)[C@H](NC(=O)c1ccc(C#Cc2ccc(/C=N/N3CCOCC3)nc2)cc1)C(=O)NO` 0.60

Report measured log10(MIC); entry is `CCC(=O)N1CCN(/N=C/c2ccc(C#Cc3ccc(C(=O)N[C@H](C(=O)NO)[C@@H](C)O)cc3)cn2)CC1` 0.90

Report measured log10(MIC); entry is `C[C@@H](O)[C@H](NC(=O)c1ccc(C#Cc2ccc(/C=N/N3CCN(S(C)(=O)=O)CC3)cc2)cc1)C(=O)NO` -0.30

Report measured log10(MIC); entry is `C[C@@H](O)[C@H](NC(=O)c1ccc(C#Cc2ccc(/C=N/N3CCOCC3)cc2)cc1)C(=O)NO` -0.60
